assay_name: In vivo radioactivity biodistribution experiment in normal mice (Example 1, Table 13)
Design: species or system ddY mice
experimental_conditions: brain, 30 min after injection
Can you tell me Biodistribution of radioactivity, Brain for the items I'm about to list?

Entry under review: Nc1ccc(/C=C2\Oc3ccc([125I])cc3C2=O)cc1 [[^125I]14] . Reported Biodistribution of radioactivity, Brain? 0.49 (0.06) % injected dose per gram

Look up Biodistribution of radioactivity, Brain for this compound: O=C1/C(=C/c2ccc(O)cc2)Oc2ccc([125I])cc21 [[^125I]20] 0.37 (0.07) % injected dose per gram

Entry CNc1ccc(/C=C2\Oc3ccc([125I])cc3C2=O)cc1 [[^125I]12] has what Biodistribution of radioactivity, Brain? 0.32 (0.02) % injected dose per gram

Recorded Biodistribution of radioactivity, Brain of CN(C)c1ccc(/C=C2\Oc3ccc([125I])cc3C2=O)cc1 [[^125I]7] , please. 0.26 (0.04) % injected dose per gram

Param item = COc1ccc(/C=C2\Oc3ccc([125I])cc3C2=O)cc1 [[^125I]17] ; retrieve measured Biodistribution of radioactivity, Brain. 0.11 (0.05) % injected dose per gram
